# SYSTEM UNDER TEST: T1, recombinant monomeric human TIGIT-His (human, UniProt Q495A1 22-141)
# T1 construct: also called hTIGIT; not shown: His tag
# T1 sequence: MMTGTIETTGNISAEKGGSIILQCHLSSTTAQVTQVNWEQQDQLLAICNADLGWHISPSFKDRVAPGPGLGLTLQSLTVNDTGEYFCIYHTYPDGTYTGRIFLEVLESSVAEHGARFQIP
# PROTOCOL DETAILS: MSD-SET solution equilibrium titration, monomeric antigen
ASSAY READOUT: Kd (pM)
Write the answer as a number in pM, unit excluded.

input: Please report the recorded Kd for MAB3-IgG4 (antibody, V domains shown) VH: QLQLQESGPGLVKPSETLSLTCTVSGGSISSTSHYWGWIRQPPGKGLEWIGSIYYSGSTFYNPSLKSRVTISVDTSKNQFSLKLSSVTAADTAVYYCARDANYYGSAWAFDPWGQGTLVTVSS VL: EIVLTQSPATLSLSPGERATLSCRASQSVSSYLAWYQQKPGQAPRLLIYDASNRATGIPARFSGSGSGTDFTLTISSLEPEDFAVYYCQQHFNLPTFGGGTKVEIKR .
output: 8.1
